# method-summary: inhibitors of hydroxyurea-induced Chk1 phosphorylation, primary screen, imaging, HeLa, phospho-Chk1 antibody, percent positive cells (AID 1186)
# settings: hydroxyurea-induced phospho-Chk1 immunofluorescence imaging, higher = more signal
Would you kindly list z-score for each of these compounds?
The answer should be written as a number, with no unit following it.

Query: GET /values?readout=z-score&item= CC(C)(C)OC(=O)CC[C@]1(C(=O)NCc2ccccc2)COC(c2ccc(OCCCO)cc2)=N1
Result: 0.0879

Query: GET /values?readout=z-score&item= COc1ccc([Si](C)(C)[C@@H]2[C@@H](CCn3cc([C@H](O)c4ccccc4)nn3)O[C@]3(C(=O)N(C)c4c(Br)cc(C)cc43)[C@H]2C)cc1
Result: -0.973

Query: Requested read-out: z-score. Entry: C=C(COC)/C(=C/C[C@H](OC(C)=O)c1ccc(CO)o1)c1cnc2ccccc2c1
Result: -0.595

Query: If you can, please state the reported z-score value of COCCOC(=O)N1C(=O)[C@@]2(c3cc(C#CC4(O)CCCCCC4)ccc31)[C@H](c1ccccc1OCCO)N1[C@H](c3ccccc3)[C@H](c3ccccc3)OC(=O)[C@H]1[C@@H]2C(=O)Nc1nc2ccccc2s1 .
Result: -0.201

Query: What measured z-score goes with Cc1ccc(S[C@]2(C(=O)NCC(C)C)CC(=O)N(C(C)C)[C@@H]2c2ccc(CO)cc2)cc1 ?
Result: -0.273

Query: Please look up its z-score: C=C(/C(=C/C[C@H](OC(C)=O)c1cccc(OCCO)c1)c1cc(C(=O)OC)ccc1OC)C(C)C
Result: 0.209

Query: Please report the recorded z-score for C=C(C1=CCN(S(=O)(=O)c2ccc(C)cc2)C1)[C@@H](OC(C)=O)[C@@H]1CCCN1S(=O)(=O)c1ccccc1[N+](=O)[O-] .
Result: -0.353
